# test: DSSTox (CPDBAS) Carcinogenic Potency Database Summary SingleCellCall Results
# measurement setup: animal chronic carcinogenicity bioassays, CPDB summary call
The source made the active and inactive calls.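 Rule for the calls: active = a tumor-causing dose value with its tumor site reported for any sex and species group of a rodent or other animal cancer study; inconclusive = only studies judged inadequate by the national testing program; inactive = tested in at least one study, none positive.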
Possible outcomes: active, inactive

# compound, label
data = [
    ("O=c1c(CO)c/c(=N/Nc2ccc(S(=O)(=O)O)c3ccccc23)c(=O)/c1=N/Nc1ccc(S(=O)(=O)O)c2ccccc12", "inactive"),
    ("O=C(O)c1ccc(O)c(O)c1", "inactive"),
    ("Cc1ccc(NC(N)=O)cc1", "active"),
    ("NC(=O)NC1NC(=O)NC1=O (centres undefined)", "inactive"),
    ("O=[N+]([O-])c1cc([N+](=O)[O-])c(Cl)c(Cl)c1Cl", "inactive"),
    ("NNc1nc(-c2ccccc2)cs1", "inactive"),
    ("Clc1cc2c(cc1Cl)Oc1cc(Cl)c(Cl)cc1O2", "active"),
    ("CN(CCCC(O)c1cccnc1)N=O (centres undefined)", "active"),
    ("ClCOCCCCCCOCCl", "inactive"),
]

====

# test: DSSTox (CPDBAS) Carcinogenic Potency Database Summary SingleCellCall Results
# measurement setup: animal chronic carcinogenicity bioassays, CPDB summary call
Activity calls are given as the source filed them.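 Rule for the calls: active = a tumor-causing dose value with its tumor site reported for any sex and species group of a rodent or other animal cancer study; inconclusive = only studies judged inadequate by the national testing program; inactive = tested in at least one study, none positive.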 Peptide text beside a SMILES is read from it.
Possible outcomes: active, inactive

# compound, label
records = [
    ("COC(=O)C1=C(C)NC(C)=C(C(=O)OCC(C)(C)CN(C)Cc2ccccc2)C1c1cc([N+](=O)[O-])ccc1F (stereo not given)", "inactive"),
    ("O=S1(=O)N=C(O)c2ccccc21", "inactive"),
    ("FC(F)OC(Cl)C(F)(F)F (stereo not given)", "inactive"),
    ("CCCCC/C=N/N(C)C=O", "active"),
    ("C[C@]12C/C(=C/O)C(=O)C[C@@H]1CC[C@@H]1[C@@H]2CC[C@@]2(C)[C@H]1CC[C@]2(C)O", "active"),
    ("ClC#CCl", "active"),
    ("CC(=O)CN(N=O)C(=O)NCCCl", "active"),
    ("O=c1c(O)c(-c2ccc(O)cc2)oc2cc(O)cc(O)c12", "inactive"),
    ("N=C1C=CC(=C(c2ccc(N)cc2)c2ccc(N)cc2)C=C1", "active"),
    ("CCCCCCC(=O)/C=C/CCCCCCCCC(=O)OC", "inactive"),
    ("Clc1ccc(C(c2ccc(Cl)cc2)C(Cl)Cl)cc1", "active"),
    ("S=C(SN1CCOCC1)N1CCOCC1", "active"),
    ("CNCc1ccc(CSCCNC(=NCC(O)c2ccc(O)cc2)NS(C)(=O)=O)o1 (stereo not given)", "active"),
    ("CC1=C(C(=O)OC(C)C)C(c2cccc([N+](=O)[O-])c2)C(C(=O)OC2CN(C(c3ccccc3)c3ccccc3)C2)=C(N)N1 (stereo not given)", "inactive"),
    ("C[C@]12CC[C@H](OS(=O)(=O)O)CC1=CC[C@@H]1[C@@H]2CC[C@]2(C)C(=O)CC[C@@H]12", "inactive"),
    ("Cc1ccccc1S(N)(=O)=O", "active"),
    ("CN(C)C(=O)Cl", "active"),
    ("Cc1cc(C(C)(C)C)c(O)c(C(C)(C)C)c1", "active"),
    ("COc1c(Cl)c(Cl)c(Cl)c(Cl)c1Cl", "active"),
    ("O=C1C(Cl)=C(Cl)C(=O)C(Cl)=C1Cl", "inactive"),
    ("Cc1c(C)c2c(c(C)c1O)CCC(C)(CCCC(C)CCCC(C)CCCC(C)C)O2 (stereo not given)", "inactive"),
    ("CCCCCCCCCCCN(C)N=O", "active"),
    ("Nc1cc(S(=O)(=O)[O-])cc2cc(S(=O)(=O)[O-])c(N=Nc3ccc(-c4ccc(N=Nc5c(S(=O)(=O)[O-])cc6cc(S(=O)(=O)[O-])cc(N)c6c5O)c(O)c4)cc3O)c(O)c12.[Cu].[Cu].[Na+].[Na+].[Na+].[Na+]", "active"),
    ("OC(O)C(Cl)(Cl)Cl", "active"),
    ("[Cl-].[Cl-].[Sn+2]", "inactive"),
    ("CC(C)(C)O", "active"),
    ("Clc1cccc(-c2cc(Cl)cc(Cl)c2)c1", "active"),
    ("O=C1c2ccccc2C(=O)c2c(O)c(O)cc(O)c21", "active"),
    ("NC1=NC(=O)C(c2ccccc2)O1 (stereo not given)", "inactive"),
    ("COC(=O)C1=CCCN(C)C1", "active"),
    ("COC(=O)[C@H](Cc1ccccc1)NC(=O)[C@@H](N)CC(=O)O (H-Asp-Phe-OMe)", "inactive"),
    ("NNCc1ccccc1", "active"),
    ("CCOc1ccc(NC(=O)CC(C)O)cc1 (stereo not given)", "active"),
    ("CCCCC(CC)COC(=O)CCCCC(=O)OCC(CC)CCCC (stereo not given)", "active"),
    ("Clc1cccc(-c2cccc(Cl)c2)c1", "active"),
]
